A collection of sequences and their measured Kd
- System: HLA-A*26:03
- Measurement protocol: IEDB peptide-MHC binding, purified MHC/competitive/fluorescence; filed as Kd, often an IC50 or EC50 that approximates it; bounds were set here for any values at or beyond the usual limits of such assays
- Conditions used: source organism: Mycobacterium tuberculosis C

| Seq | Result |
| --- | --- |
| ALFDRPAFK | ≥ 20 µM |

Please examine the following record next.
# query: Kd of entry QINELHHSK
≥ 20 µM

====

- System: HLA-B*27:03
- Measurement protocol: IEDB peptide-MHC binding, purified MHC/competitive/fluorescence; filed as Kd, often an IC50 or EC50 that approximates it; bounds were set here for any values at or beyond the usual limits of such assays
- Conditions used: source organism: Hantavirus HPR/02-73
pKd: −log10 of the molar value.
Quantity kind: pKd

# query: pKd of entry YILGFAIPI
≤ 4.70

Reference source for all entries: the Immune Epitope Database (IEDB)
